Origin of measurements: patent US10807985B2

# system_name: D816V KIT (Homo sapiens (Human), UniProt P10721, D816V)
# Sequence (P10721 26-976 D816V): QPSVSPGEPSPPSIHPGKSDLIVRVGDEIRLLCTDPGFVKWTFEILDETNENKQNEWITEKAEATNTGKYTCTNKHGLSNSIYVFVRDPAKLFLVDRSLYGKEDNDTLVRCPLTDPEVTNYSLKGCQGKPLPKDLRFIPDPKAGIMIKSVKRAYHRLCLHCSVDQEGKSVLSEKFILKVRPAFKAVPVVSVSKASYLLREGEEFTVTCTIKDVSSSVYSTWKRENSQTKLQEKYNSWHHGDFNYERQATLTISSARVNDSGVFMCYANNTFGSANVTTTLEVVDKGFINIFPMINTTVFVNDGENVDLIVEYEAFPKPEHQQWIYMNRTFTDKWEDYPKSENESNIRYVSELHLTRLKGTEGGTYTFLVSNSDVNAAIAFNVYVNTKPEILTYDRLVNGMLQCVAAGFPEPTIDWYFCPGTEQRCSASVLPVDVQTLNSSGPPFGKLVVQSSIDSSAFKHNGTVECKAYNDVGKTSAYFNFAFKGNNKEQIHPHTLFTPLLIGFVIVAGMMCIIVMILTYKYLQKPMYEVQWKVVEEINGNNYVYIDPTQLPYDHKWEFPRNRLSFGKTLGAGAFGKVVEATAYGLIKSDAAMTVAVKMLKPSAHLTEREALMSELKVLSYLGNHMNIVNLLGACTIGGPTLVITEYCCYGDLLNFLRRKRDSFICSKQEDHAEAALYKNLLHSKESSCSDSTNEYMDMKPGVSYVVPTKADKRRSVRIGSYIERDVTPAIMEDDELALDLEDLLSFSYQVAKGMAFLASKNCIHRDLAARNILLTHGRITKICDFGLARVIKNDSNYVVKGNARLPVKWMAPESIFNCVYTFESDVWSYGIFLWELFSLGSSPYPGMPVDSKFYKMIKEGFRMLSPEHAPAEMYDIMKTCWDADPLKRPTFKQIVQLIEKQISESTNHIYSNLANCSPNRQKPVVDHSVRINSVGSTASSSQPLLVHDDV
# assay_remarks: KIT D816V assay at Km (Caliper electrophoretic mobility shift)
# condition_summary: biochemical, 15 uM ATP (Km), 90 minutes at 25 C; read-out: INH KIT D816V
pIC50: −log10 of the molar value.
property_measured: pIC50

compound: CC[C@@](O)(c1ccc(F)cc1)c1cnc(N2CCN(c3ncnn4cc(-c5cnn(C)c5)cc34)CC2)nc1 [Compound 70]
system_name: D816V KIT (Homo sapiens (Human), UniProt P10721, D816V)
property_measured: pIC50
endpoint_result: 8.00 to 9.00

Report pIC50 for Cn1cc(-c2cc3c(N4CCN(c5ncc([C@](C)(O)c6ccccc6F)cn5)CC4)ncnn3c2)cn1 [Compound 48] 8.00 to 9.00

In one line, give reported pIC50 of the entry Cn1cc(-c2cc3c(N4CCN(c5ncc([C@@](O)(c6ccc(F)cc6)C(F)F)cn5)CC4)ncnn3c2)cn1 [Compound 117] . > 9.00

Give the value of pIC50 reported for the following: COc1cc(OC)cc(-c2cc3c(N4CCN(c5ccccc5)CC4)ncnn3c2)c1 [Compound 4] < 7.00

Specify measured pIC50 for CN(C)C(=O)c1ccc(-c2cc3c(N4CCN(c5ccccc5)CC4)ncnn3c2)cc1 [Compound 6] . < 7.00

Supply measured pIC50 of CO[C@](C)(c1ccc(F)cc1)c1cnc(N2CCN(c3ncnn4cc(-c5cnn(C)c5)cc34)CC2)nc1 [Compound 68] in your reply. 8.00 to 9.00

Return reported pIC50. Input compound: Cn1cc(-c2cc3c(N4CCN(c5ncc(C(C)(C)c6c(F)cc(F)cc6F)cn5)CC4)ncnn3c2)cn1 [Compound 106] 8.00 to 9.00

Give recorded pIC50. Cn1cc(-c2cc3c(N4CCN(c5ncc(S(=O)(=O)c6ccc(F)cc6)cn5)CC4)ncnn3c2)cn1 [Compound 99] 7.00 to 8.00

Give the reported pIC50 for this compound. Cn1cc(-c2cc3c(N4CCN(c5ncc([C@](C)(O)c6ccc(F)cc6Cl)cn5)CC4)ncnn3c2)cn1 [Compound 109] 7.00 to 8.00

Query pIC50 for Cn1cc(-c2cc3c(N4CCN(c5ncc([C@](N)(c6ccc(F)cc6)C(F)F)cn5)CC4)ncnn3c2)cn1 [Compound 112] 8.00 to 9.00

# return recorded pIC50 for input Cn1cc(-c2cc3c(N4CCN(c5ncc([C@@](O)(c6ccc(F)cc6)C6CC6)cn5)CC4)ncnn3c2)cn1 [Compound 104] 8.00 to 9.00
